B1: FBXO3 (parent)
chain: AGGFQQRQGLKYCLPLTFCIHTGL

Variants of: B1
Assay: protein stability index of a GFP-peptide fusion (GPS, HEK-293T) (PSI 1-6); higher = more stable;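 also: lentivirally expressed fusions sorted by FACS into six bins by GFP to DsRed ratio, PSI derived from sequencing read proportions per bin multiplied by bin number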
Conditions: c terminus: a fixed tail appended
reportedProperty: protein stability index

{"var": "R7N", "valueReported": 2.95}
{"var": "C13N", "valueReported": 2.93}
{"var": "Q5W", "valueReported": 3.08}
{"var": "G3F", "valueReported": 3.02}

All figures here come from the supplement of paper PMC10567573.
